The origin of these recorded values is patent US20100204467A1.

experiment: Emission quantum yield; type: physicochemical; settings: quantum yields ±15%
EXPERIMENTAL_READOUT: nem^Tb (H2O) (%)

CC(NC(=O)CN1CCN(CC(=O)NC(C)c2ccccc2)CCN(Cc2ccc3c(=O)c4cc(C(C)(C)C)ccc4oc3n2)CCN(CC(=O)NC(C)c2ccccc2)CC1)c1ccccc1.[Tb+3] (centres unmarked) [[TbL^4]^3+]
37
CC(NC(=O)CN1CCN(CC(=O)NC(C)c2ccccc2)CCN(Cc2ccc3c(n2)c2ncccc2c2nc4c(nc32)CCCC4)CCN(CC(=O)NC(C)c2ccccc2)CC1)c1ccccc1.[Tb+3] (centres unmarked) [[TbL^6]^3+]
40
